Hello, the source for this data is patent US8778975B2, in case you need it.

Tested on: Salmonella typhimurium (ATCC 13311)
Experiment: Antibacterial test (MIC), Gram-negative bacteria
Assay type: cell-based
Details: Salmonella enterica, read-out: MIC
Readout kind: MIC

[[record]]
compound = "CCCCCCCOc1ccnc(CSc2nc3ccccc3[nH]2)c1C [Example 3]"
reported_value = "> 100 µg/mL"

[[record]]
compound = "CCCCCOc1ccnc(CSc2nc3ccccc3[nH]2)c1C [Example 1]"
reported_value = "> 100 µg/mL"

[[record]]
compound = "CCCCCCOc1ccnc(CSc2nc3ccccc3[nH]2)c1C [Example 2]"
reported_value = "> 100 µg/mL"

